Target: Shaker voltage-gated potassium channel (Drosophila melanogaster, UniProt P08510)
Sequence (P08510 whole entry): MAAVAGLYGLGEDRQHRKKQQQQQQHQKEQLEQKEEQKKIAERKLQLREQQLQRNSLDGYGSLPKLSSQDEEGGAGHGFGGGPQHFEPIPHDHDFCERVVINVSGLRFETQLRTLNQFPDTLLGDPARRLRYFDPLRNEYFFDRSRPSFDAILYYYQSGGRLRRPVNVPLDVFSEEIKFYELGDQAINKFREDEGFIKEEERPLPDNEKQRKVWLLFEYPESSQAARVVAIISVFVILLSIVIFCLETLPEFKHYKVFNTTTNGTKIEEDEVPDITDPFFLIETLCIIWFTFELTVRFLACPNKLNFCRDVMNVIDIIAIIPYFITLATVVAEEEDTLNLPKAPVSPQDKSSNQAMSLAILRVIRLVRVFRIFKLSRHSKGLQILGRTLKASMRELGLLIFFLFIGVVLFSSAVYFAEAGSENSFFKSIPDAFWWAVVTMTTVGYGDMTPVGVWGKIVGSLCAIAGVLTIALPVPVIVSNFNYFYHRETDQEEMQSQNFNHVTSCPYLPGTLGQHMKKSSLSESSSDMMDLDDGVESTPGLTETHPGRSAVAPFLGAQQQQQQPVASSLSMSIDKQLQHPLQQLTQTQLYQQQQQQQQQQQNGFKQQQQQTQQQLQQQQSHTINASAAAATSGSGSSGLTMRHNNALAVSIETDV
Assay: cut-open voltage clamp electrophysiology of K+ currents in Xenopus laevis oocytes expressing Shaker
Format: cell-based, D. melanogaster
Settings: pH 9.1
Please provide measured δ ± s.d. (electric fraction) for the entries that follow.
Answers are plain numbers.

Required: δ ± s.d. (electric fraction), one value per compound below.
1. Cc1cnccc1N [3Me4AP, 3-methyl-4AP]
2. Nc1ccncc1F [3F4AP, 3-fluoro-4-aminopyridine]
3. Nc1ccncc1 [4AP, 4-aminopyridine]
4. Cc1cncc(F)c1N [5Me3F4AP, 3-fluoro-5-methylpyridin-4-amine]

1: 0.47; 2: 0.52; 3: 0.41; 4: 0.40
